- experiment.notes: The drug is tested on Clostridium symbiosum strain: ATCC14940 for biotransformation. The drug concentrations were measured before and after a 12-h incubation by liquid-chromatography-coupled mass spectrometry (LC–MS)
- test.parameters: 2 µM
experimental.endpoint: Bacterial Biotransformation

Some entries whose results are on file:
{"columns": ["compound", "Bacterial Biotransformation"],
 "data": [
  ["CNCC[C@H](Oc1cccc2ccccc12)c1cccs1", "Compound NOT metabolized"],
  ["Fc1ccc([C@@H]2CCNC[C@H]2COc2ccc3c(c2)OCO3)cc1", "Compound NOT metabolized"],
  ["CNNCc1ccc(C(=O)NC(C)C)cc1", "Compound NOT metabolized"],
  ["COc1ccc2c3c1O[C@H]1C[C@@H](O)C=C[C@@]31CCN(C)C2", "Compound NOT metabolized"],
  ["COc1c2occc2cc2ccc(=O)oc12", "Compound metabolized"],
  ["COC(=O)[C@H](c1ccccc1Cl)N1CCc2sccc2C1.O=S(=O)(O)O [CLOPIDOGREL BISULFATE]", "Compound NOT metabolized"]
]}

query: Query (compound): `COc1ccc2c(c1)c(CC(=O)O)c(C)n2C(=O)c1ccc(Cl)cc1` ; field requested: Bacterial Biotransformation
result: Compound metabolized

query: Moving on to CN1CCOC(c2ccccc2)c2ccccc2C1 (centres undefined)
result: Compound NOT metabolized

query: Moving on to `CC#CCn1c(N2CCC[C@@H](N)C2)nc2c1c(=O)n(Cc1nc(C)c3ccccc3n1)c(=O)n2C`
result: Compound NOT metabolized
